Tested on: HT29 colon
ASSAY_PROCEDURE: NCI-60 one-dose screen, 48 h (100 = growth as untreated, 0 = no growth, -100 = all killed)
MEASUREMENT_SETUP: 10 µM unless noted
Procedure: Growth inhibition of the HT29 human tumor cell line is measured as a screen for anti-cancer activity. Cells are grown in 96 well plates and exposed to the test compound for 48 hours. Compounds are tested at a single concentration, which is 10^-5 M for most compounds. The reported endpoint is percent growth (GI% or GIPRCNT), where numbers from 0 - 100% represent growth inhibition, and numbers from -100% - 0 represent cell death. For example, a value of 40 represents 60% growth inhibition. […]
This is part of a sample that, as a whole, favours compounds with a hit. Of some 83,000 tested, about 20% had one in any assay.
QUANTITY: growth (%)
Lab book: enter the figure in %, no units written.

Some solved entries appear below for comparison.
# COMPOUND, UNITS_OF_MEASURE, growth
data = [
    ("O=C1C=CC(=O)N1c1ccc(Cc2ccc(N3C(=O)C=CC3=O)cc2)cc1", "%", 133),
    ("COc1c(C2CC(=O)Nc3c2cnn3Cc2ccco2)cc2c(c1OC)OCO2 (stereo unspecified)", "%", 11.2),
    ("CCOc1ccc(Nc2nc(-c3c(C)nc4ncccn34)cs2)cc1", "%", 4.76),
    ("COC(=S)SCN(CSC(=S)OC)c1ccc(Cl)cc1", "%", 102),
    ("CC(=O)OCC(=O)C1CCC=CC1OC(C)=O (stereo unspecified)", "%", 107),
]

I am curious: what growth value has been reported for CCOC(=O)N1CCN(c2nc(Nc3cc(C)[nH]n3)c3ccccc3n2)CC1 ?
22.6

I am curious: what growth value has been reported for O=S(=O)(Nc1ccc(F)c(Cl)c1)c1ccc(-c2cnc(C3CC3)o2)cc1 ?
-3.16

I am curious: what growth value has been reported for CSc1nc(NCCCNc2ccnc3cc(Cl)ccc23)cc(-c2ccccc2)n1 ?
9.09

I am curious: what growth value has been reported for Nc1nc2c(c3ncccc13)C(c1cccc(Br)c1)Cc1ncccc1-2 (stereo unspecified) ?
0.652

I am curious: what growth value has been reported for CCc1ccc(C(c2ccc(CC)cc2)C(Cl)(Cl)CCl)cc1 ?
76.8

I am curious: what growth value has been reported for Cn1cc(-c2nc(-c3c[nH]c4ccccc34)cs2)c2cccnc21 ?
7.8

Each recorded value in this set is attributed to PubChem BioAssay (NCI).
